Target: ~100 representative kinases (Homo sapiens, UniProt Q9BRS2)
Construct: Recombinant protein kinase domains with a concentration of 2 μM
Sequence (Q9BRS2 whole entry, the tested form may be a part): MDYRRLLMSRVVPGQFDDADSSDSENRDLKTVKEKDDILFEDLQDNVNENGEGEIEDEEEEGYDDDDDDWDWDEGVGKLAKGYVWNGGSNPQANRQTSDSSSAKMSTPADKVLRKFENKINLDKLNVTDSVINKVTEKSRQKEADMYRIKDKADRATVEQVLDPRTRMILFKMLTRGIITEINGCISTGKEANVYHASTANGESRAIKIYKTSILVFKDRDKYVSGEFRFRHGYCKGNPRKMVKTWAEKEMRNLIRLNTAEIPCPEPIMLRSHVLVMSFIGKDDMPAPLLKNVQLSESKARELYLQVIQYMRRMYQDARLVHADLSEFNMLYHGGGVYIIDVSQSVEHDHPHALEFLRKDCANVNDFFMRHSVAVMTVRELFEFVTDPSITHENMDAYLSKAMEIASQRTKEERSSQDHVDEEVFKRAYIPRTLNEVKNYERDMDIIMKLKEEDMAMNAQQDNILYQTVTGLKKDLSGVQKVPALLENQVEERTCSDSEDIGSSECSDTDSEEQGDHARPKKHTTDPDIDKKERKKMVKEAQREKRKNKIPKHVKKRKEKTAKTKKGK
Assay: DSF 100 kinase selectivity screen;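 further: compound tested at 20 µM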
Format: binding
Conditions: Protein RIOK1; DSF; average of three replicates
Experimental: Recombinant protein kinase domains with a concentration of 2 μM were mixed with a 20 μM compound solution in dimethyl sulfoxide (DMSO), 20 mM Hepes (pH 7.5), and 500 mM NaCl. SYPRO Orange (5000×, Invitrogen) was added as a fluorescence probe (1μl/ml). Subsequently, temperature-dependent protein unfolding profiles were measured using the QuantStudio 5 realtime PCR machine (Thermo Fisher Scientific, Waltham, MA, USA). […] The temperature was raised with a step rate of 3°C/min. […]
Recorded metric: dTm (K)
Dear colleague, please return just the value in K, with no unit written.

INSERT INTO assay_data (compound, recorded_metric, reported_value) VALUES
  ('C[C@@H]1CN(c2cc(-c3n[nH]c4ccc(OC5(C)CC5)cc34)ncn2)C[C@H](C)O1', 'dTm', -1.66),
  ('Cc1ccc(C(=O)Nc2ccc(CN3CCN(C)CC3)c(C(F)(F)F)c2)cc1C#Cc1cnc2cccnn12 [Ponatinib, reference compound]', 'dTm', 1.86),
  ('Cc1ccc(C(=O)Nc2ccc(CN3CCN(C)CC3)c(C(F)(F)F)c2)cc1C#Cc1c[nH]c2ncnc(N3CCOCC3)c12', 'dTm', 4.09),
  ('Cc1ccc(C(=O)Nc2ccc(CN3CCN(C)CC3)c(C(F)(F)F)c2)cc1C#Cc1cnc2[nH]ncc2c1 [GZD-824, reference compound]', 'dTm', 2.49),
  ('Cn1cc(-c2c[nH]c3ncnc(N4CCOCC4)c23)cc1C#N', 'dTm', -0.58);

Would you kindly look at the next entry?
Request: Which dTm value belongs to CCNc1nc(Nc2cc(F)c(C(=O)N3CCOCC3)cc2OC)ncc1C(F)(F)F ?
Result: -0.09

---

Test system: ~100 representative kinases
Assay: DSF 100 kinase selectivity screen;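 further: compound tested at 20 µM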
Type: binding
Settings: Protein BRD; average of three replicates
Measured dTm of individual entries
Dear colleague, please return just the value in K, with no unit written.

Examples from the recorded data:
INSERT INTO measurements (cpd_smiles, unit_text, reported_value) VALUES
  ('C[C@@H]1CN(c2cc(-c3n[nH]c4ccc(OC5(C)CC5)cc34)ncn2)C[C@H](C)O1', 'K', 0.12),
  ('Cc1cc(NC(=O)C2(C(=O)Nc3ccc(F)cc3)CC2)cc(-c2c[nH]c3ncnc(N4CCOCC4)c23)c1', 'K', 0.73);

Request: Form: Entry = CCc1ccc(NC(=O)C2(C(=O)Nc3cccc(-c4c[nH]c5ncnc(N6CCOCC6)c45)c3)CC2)cc1 | System = ~100 representative kinases | dTm = ____
Result: -2.47

Request: And COc1cc(NC(=O)C2(C(=O)Nc3cccc(-c4c[nH]c5ncnc(N6CCOCC6)c45)c3)CC2)ccc1F ?
Result: -1.43

Request: And O=C(Nc1cccc(-c2c[nH]c3ncnc(N4CCOCC4)c23)c1)C1(C(=O)Nc2ccc(F)c(Br)c2F)CC1 ?
Result: 1.43

Request: And Cc1ccc(-n2nc(C(C)(C)C)cc2NC(=O)Nc2cccc(-c3c[nH]c4ncnc(N5CCOCC5)c34)c2)cc1 ?
Result: -2.22

Request: And O=C(Nc1cccc(-c2c[nH]c3ncnc(N4CCOCC4)c23)c1)C1(C(=O)Nc2cc(Br)c(F)cc2F)CC1 ?
Result: 1.03
